studyTarget: Extracellular serine/threonine protein kinase FAM20C (Homo sapiens)
runDescription: Inhibition of Fam20C (unknown origin) assessed as reduction in inorganic phosphate release in presence of ATP at 10 uM measured by Malachite green phosphate staining based micro plate reader assay relative to control
assayEndpoint: inhibition (%)

Some solved entries appear below for comparison.
{"substanceSmiles": "O=S(=O)(Nc1ccc(Nc2nc(Nc3ccc(F)cc3)cc(C(F)(F)F)n2)cc1)c1ccccc1OC(F)(F)F", "studyTarget": "Extracellular serine/threonine protein kinase FAM20C (Homo sapiens)", "unitTag": "%", "inhibition": 24}
{"substanceSmiles": "COc1cc(Nc2ccnc(Nc3ccc(NS(=O)(=O)c4ccc(C)cc4)cc3)n2)cc(OC)c1OC", "studyTarget": "Extracellular serine/threonine protein kinase FAM20C (Homo sapiens)", "unitTag": "%", "inhibition": 28}

I = COc1ccc(Nc2ccc(Nc3nc(C)cc(Nc4ccc(OC)cc4)n3)cc2)cc1
II = Cc1cc(Nc2ccc(F)cc2)nc(Nc2ccc(NS(=O)(=O)c3ccccc3OC(F)(F)F)cc2)n1
IN: Quick one: lower inhibition, I or II ? Returns: label corresponding to the selected item.
OUT: I

I = COc1cc(C)cc(Cl)c1S(=O)(=O)Nc1ccc(Nc2nc(C)cc(Nc3ccc(F)cc3)n2)cc1
II = COc1ccc(Nc2ccnc(Nc3ccc(NS(=O)(=O)c4ccc(C(F)(F)F)cc4)cc3)n2)cc1
IN: Quick one: lower inhibition, I or II ? Returns: label corresponding to the selected item.
OUT: I

* * *

studyTarget: Extracellular serine/threonine protein kinase FAM20C (Homo sapiens, UniProt Q8IXL6)
Sequence (Q8IXL6 whole entry): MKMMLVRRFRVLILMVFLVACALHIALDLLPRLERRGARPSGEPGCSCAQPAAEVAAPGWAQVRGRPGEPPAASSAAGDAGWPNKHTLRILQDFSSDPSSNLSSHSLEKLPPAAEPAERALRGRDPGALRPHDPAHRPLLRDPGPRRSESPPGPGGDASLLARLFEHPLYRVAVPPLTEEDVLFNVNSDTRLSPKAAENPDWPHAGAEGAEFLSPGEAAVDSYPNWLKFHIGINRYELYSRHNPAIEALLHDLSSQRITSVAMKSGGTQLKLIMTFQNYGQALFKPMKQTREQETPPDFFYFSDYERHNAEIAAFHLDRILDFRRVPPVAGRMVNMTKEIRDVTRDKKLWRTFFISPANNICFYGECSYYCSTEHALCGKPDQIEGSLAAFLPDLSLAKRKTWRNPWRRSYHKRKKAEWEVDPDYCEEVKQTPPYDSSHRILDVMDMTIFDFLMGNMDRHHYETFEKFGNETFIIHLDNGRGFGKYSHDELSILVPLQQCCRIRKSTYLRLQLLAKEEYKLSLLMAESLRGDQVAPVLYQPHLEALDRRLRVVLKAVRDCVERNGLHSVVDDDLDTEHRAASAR
runDescription: Inhibition of Fam20C (unknown origin) assessed as reduction in inorganic phosphate release in presence of ATP measured by Malachite green phosphate staining based micro plate reader assay
assayEndpoint: pIC50
Note on pIC50: it is the negative log10 of concentration, concentration in mol/L.

IN: Would you mind telling me what pIC50 value was observed for COc1ccc(S(=O)(=O)Nc2ccc(Nc3nccc(Nc4cc(OC)c(OC)c(OC)c4)n3)cc2)cc1 ?
OUT: 5.20

* * *

studyTarget: Extracellular serine/threonine protein kinase FAM20C (Homo sapiens) (UniProt Q8IXL6)
Sequence (whole entry): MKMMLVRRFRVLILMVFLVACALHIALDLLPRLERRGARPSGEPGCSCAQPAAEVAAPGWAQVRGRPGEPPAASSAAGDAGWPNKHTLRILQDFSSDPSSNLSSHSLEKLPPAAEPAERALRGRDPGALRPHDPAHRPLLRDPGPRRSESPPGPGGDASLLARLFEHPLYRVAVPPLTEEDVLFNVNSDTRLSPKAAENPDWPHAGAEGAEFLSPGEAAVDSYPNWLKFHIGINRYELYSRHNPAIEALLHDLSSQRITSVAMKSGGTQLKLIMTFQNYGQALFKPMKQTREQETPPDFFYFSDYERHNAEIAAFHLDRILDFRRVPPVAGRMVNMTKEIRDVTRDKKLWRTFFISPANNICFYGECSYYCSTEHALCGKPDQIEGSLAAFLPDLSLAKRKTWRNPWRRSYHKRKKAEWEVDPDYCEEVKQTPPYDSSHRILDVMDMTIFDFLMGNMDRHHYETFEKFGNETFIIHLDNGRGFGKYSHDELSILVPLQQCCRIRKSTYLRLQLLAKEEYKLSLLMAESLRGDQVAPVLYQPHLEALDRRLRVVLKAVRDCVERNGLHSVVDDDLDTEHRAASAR
runDescription: Inhibition of Fam20C (unknown origin) assessed as reduction in inorganic phosphate release in presence of ATP at 10 uM measured by Malachite green phosphate staining based micro plate reader assay relative to control
assayEndpoint: inhibition (%)

Some solved entries appear below for comparison.
{"substanceSmiles": "COc1ccc(Nc2ccnc(Nc3ccc(NS(=O)(=O)c4ccc(OC)cc4)cc3)n2)cc1", "unitTag": "%", "endpointResult": 25}
{"substanceSmiles": "Cc1ccc(S(=O)(=O)Nc2ccc(Nc3nc(Nc4ccc(F)cc4)cc(C(F)(F)F)n3)cc2)c(Cl)c1", "unitTag": "%", "endpointResult": 18}

P = COc1ccc(Nc2cc(C(F)(F)F)nc(Nc3ccc(NS(=O)(=O)c4ccccc4Cl)cc3)n2)cc1
Q = COc1ccc(S(=O)(=O)Nc2ccc(Nc3nccc(Nc4cc(OC)c(OC)c(OC)c4)n3)cc2)cc1
IN: Quick one: lower inhibition, P or Q ? Returns: label corresponding to the selected item.
OUT: P

* * *

System: MDA-MB-231
runDescription: Antiproliferative activity against human MDA-MB-231 cells measured by MTT assay
Type: functional, cell-based
pIC50: −log10 of the molar value.
assayEndpoint: pIC50

{"substanceSmiles": "COc1ccc(S(=O)(=O)Nc2ccc(Nc3nccc(Nc4cc(OC)c(OC)c(OC)c4)n3)cc2)cc1", "endpointResult": 5.22}
{"substanceSmiles": "COc1ccc(Nc2ccnc(Nc3ccc(NS(=O)(=O)c4ccc(C)cc4)cc3)n2)cc1", "endpointResult": 4.67}

P = COc1cc(Nc2ccnc(Nc3ccc(NS(=O)(=O)c4ccc(C)cc4)cc3)n2)cc(OC)c1OC
Q = COc1ccc(Nc2ccnc(Nc3ccc(NS(=O)(=O)c4ccc(OC)cc4)cc3)n2)cc1
R = COc1ccc(Nc2cc(C(F)(F)F)nc(Nc3ccc(NS(=O)(=O)c4ccccc4OC(F)(F)F)cc3)n2)cc1
IN: Order the items by recorded pIC50; the first position goes to the largest value. Put the labels in the requested order and write them down.
OUT: Q, P, R

1 = COc1ccc(Nc2cc(C)nc(Nc3ccc(NS(=O)(=O)c4ccccc4Cl)cc3)n2)cc1
2 = COc1ccc(C(=O)Nc2ccc(Nc3nc(C)cc(Nc4cc(OC)c(OC)c(OC)c4)n3)cc2)cc1
3 = Cc1ccc(S(=O)(=O)Nc2ccc(Nc3nc(Nc4ccc(F)cc4)cc(C(F)(F)F)n3)cc2)c(Cl)c1
IN: Order the items by recorded pIC50; the first position goes to the largest value. Put the labels in the requested order and write them down.
OUT: 2, 1, 3

a = COc1ccc(Nc2cc(C(F)(F)F)nc(Nc3ccc(NS(=O)(=O)c4ccc(OC)cc4)cc3)n2)cc1
b = COc1ccc(Nc2cc(C(F)(F)F)nc(Nc3ccc(NS(=O)(=O)c4ccccc4Cl)cc3)n2)cc1
IN: Lab note: record which item had the higher pIC50, a or b . Returns: label corresponding to the selected item.
OUT: a
(a: 4.67, b: 4.36)

* * *

studyTarget: Extracellular serine/threonine protein kinase FAM20C (Homo sapiens) (UniProt Q8IXL6)
Sequence (whole entry): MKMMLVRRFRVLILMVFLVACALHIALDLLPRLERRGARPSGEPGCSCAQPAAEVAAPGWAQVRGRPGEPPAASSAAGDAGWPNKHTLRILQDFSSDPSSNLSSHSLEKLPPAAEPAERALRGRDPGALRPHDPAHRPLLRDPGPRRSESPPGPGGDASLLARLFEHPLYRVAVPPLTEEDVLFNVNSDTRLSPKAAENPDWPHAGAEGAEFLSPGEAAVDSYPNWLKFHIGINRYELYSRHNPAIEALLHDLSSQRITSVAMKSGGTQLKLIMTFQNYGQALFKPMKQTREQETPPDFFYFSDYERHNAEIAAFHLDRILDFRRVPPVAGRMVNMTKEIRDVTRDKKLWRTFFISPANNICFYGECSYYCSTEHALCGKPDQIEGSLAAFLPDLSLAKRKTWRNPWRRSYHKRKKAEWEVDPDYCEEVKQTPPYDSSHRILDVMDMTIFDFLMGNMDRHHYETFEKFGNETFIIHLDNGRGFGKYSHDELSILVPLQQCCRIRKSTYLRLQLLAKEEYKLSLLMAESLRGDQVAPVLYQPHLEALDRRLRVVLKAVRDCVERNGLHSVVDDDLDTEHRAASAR
runDescription: Inhibition of Fam20C (unknown origin) assessed as reduction in inorganic phosphate release in presence of ATP at 10 uM measured by Malachite green phosphate staining based micro plate reader assay relative to control
assayEndpoint: inhibition (%)

Some solved entries appear below for comparison.
{"substanceSmiles": "COc1ccc(Nc2cc(C(F)(F)F)nc(Nc3ccc(NS(=O)(=O)c4ccc(OC)cc4)cc3)n2)cc1", "inhibition / %": 43}
{"substanceSmiles": "COc1ccc(C(=O)Nc2ccc(Nc3nccc(Nc4ccc(OC)cc4C)n3)cc2)cc1", "inhibition / %": 23}

P = COc1ccc(C(=O)Nc2ccc(Nc3nc(C)cc(Nc4cc(OC)c(OC)c(OC)c4)n3)cc2)cc1
Q = COc1ccc(Nc2ccnc(Nc3ccc(NS(=O)(=O)c4ccc(C)cc4)cc3)n2)cc1
R = COc1ccc(Nc2cc(C(F)(F)F)nc(Nc3ccc(NS(=O)(=O)c4ccccc4OC(F)(F)F)cc3)n2)cc1
IN: Order the records, beginning with the lowest inhibition and ending with the highest. Put the labels in the requested order and write them down.
OUT: R, Q, P
